- assayed_system: partially purified aldose reductase enzyme obtained from human placenta (Homo sapiens, UniProt P15121)
- Construct: partially purified aldose reductase enzyme obtained from human placenta; from tissue; host or cells: human placenta
- test: inhibition of aldose reductase enzyme activity (procedure of S. Hayman et al. as modified by K. Sestanj et al.)
- Assay type: biochemical
- condition_notes: 10^-7 M; read-out: Percent Inhibition (%) of aldose reductase enzyme activity
- From the text: Hayman et al., as described in the Journal of Biological Chemistry, Vol. 240, p. 877 (1965) and as modified by K. Sestanj et al. in U.S. Pat. […] In every case, the substrate employed was partially purified aldose reductase enzyme obtained from human placenta.
Catalogue of inhibition at 0.1 µM values
Write the number in % without appending the unit.

Example results:
[[record]]
given_smiles = "O=C(O)Cc1nn(Cc2nc3cc(C(F)(F)F)ccc3s2)c(=O)c2cccnc12"
experimental_value = 74

[[record]]
given_smiles = "O=C(O)Cc1nn(Cc2ccc(Br)cc2F)c(=O)c2cccnc12"
experimental_value = 30

[[record]]
given_smiles = "O=C(O)Cc1nn(Cc2cc3c(Cl)cccc3s2)c(=O)c2cccnc12"
experimental_value = 8

[[record]]
given_smiles = "O=C(O)Cc1nn(Cc2nc3cc(Br)ccc3o2)c(=O)c2cccnc12"
experimental_value = 31

[[record]]
given_smiles = "O=C(O)Cc1nn(Cc2noc(-c3ccccc3C(F)(F)F)n2)c(=O)c2cccnc12"
experimental_value = 43

[[record]]
given_smiles = "O=C(O)Cc1nn(Cc2nc3cc(F)ccc3s2)c(=O)c2cccnc12"
experimental_value = 90


QUERY: Sample O=C(O)Cc1nn(Cc2nc3cc(F)cc(F)c3s2)c(=O)c2cccnc12 — what was its inhibition at 0.1 µM?
RESULT: 39
